Target Or System: AβO in the low molecular weight (LMW) fraction of pooled soluble human AD brain extract (~8 kDa to ~70 kDa) (human) (UniProt P05067)
Assay Comment: SPR, immobilized antibody, brain extract fraction at 100 µg/ml injected; Study 2
Recorded Binding to LMW (BRU) for the following binders
I only need the number, in BRU, no unit after it.

Below: 3 binders and their reported Binding to LMW (BRU).
Binder | Endpoint Unit | Binding to LMW (BRU)
Clone 4 (affinity matured VH with parental Vk, human IgG4 S241P / kappa) (antibody, V domains shown) VH: QVQLVQSGAEVKKPGASVKMSCKASGYSFTSYWINWVKQRPGQGLEWIGDVHPGRGVSTYNAKFKSRATLTLDTSISTAYMELSSLRSEDTAVYYCARVSPTGYWFFDVWGQGTTVTVSS VL: DVLMTQSPLSLPVTLGQPASISCRSSQSIVHSNGNTYLEWYQQRPGQSPRLLIYKVSNRFSGVPDRFSGSGSGTDFTLKISRVEAEDVGVYYCFQGSHVPFTFGQGTKLEIKR | BRU | 17.3
parental antibody, PMN310 humanized antibody variant VH2/Vk5 (human IgG4 S241P / kappa) (antibody, V domains shown) VH: QVQLVQSGAEVKKPGASVKMSCKASGYSFTSYWINWVKQRPGQGLEWIGDVHPGRGVSTYNAKFKSRATLTLDTSISTAYMELSSLRSEDTAVYYCSRSHGNTYWFFDVWGQGTTVTVSS VL: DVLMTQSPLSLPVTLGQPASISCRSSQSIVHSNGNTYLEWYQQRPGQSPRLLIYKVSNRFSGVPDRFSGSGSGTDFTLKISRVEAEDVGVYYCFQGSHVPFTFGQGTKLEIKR | BRU | 17.7
Clone 5 (affinity matured VH with parental Vk, human IgG4 S241P / kappa) (antibody, V domains shown) VH: QVQLVQSGAEVKKPGASVKMSCKASGYSFTSYWINWVKQRPGQGLEWIGDVHPGRGVSTYNAKFKSRATLTLDTSISTAYMELSSLRSEDTAVYYCARGALSPYWFFDVWGQGTTVTVSS VL: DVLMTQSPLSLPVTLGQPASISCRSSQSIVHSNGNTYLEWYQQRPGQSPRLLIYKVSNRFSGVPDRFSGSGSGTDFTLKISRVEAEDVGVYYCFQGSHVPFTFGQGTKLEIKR | BRU | 9.42

Shifting focus to the binder that follows.
Need Binding to LMW (BRU) of Clone 14 (affinity matured VH with parental Vk, human IgG4 S241P / kappa) (antibody, V domains shown) VH: QVQLVQSGAEVKKPGASVKMSCKASGYSFTSYWINWVKQRPGQGLEWIGDVHPGRGVSTYNAKFKSRATLTLDTSISTAYMELSSLRSEDTAVYYCAKSDASGYWFFDVWGQGTTVTVSS VL: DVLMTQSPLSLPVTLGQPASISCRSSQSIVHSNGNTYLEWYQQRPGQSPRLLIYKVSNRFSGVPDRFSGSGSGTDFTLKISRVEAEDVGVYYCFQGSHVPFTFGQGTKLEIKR , thanks.
11.1
